Hello, the source for this data is patent US20040142972A1, in case you need it.

# ASSAY_TARGET: cloned muscarinic - M2 binding site (Homo sapiens)
# Construct: expressed in transfected cells; host or cells: CHO cells
# Sequence (P08172 whole entry): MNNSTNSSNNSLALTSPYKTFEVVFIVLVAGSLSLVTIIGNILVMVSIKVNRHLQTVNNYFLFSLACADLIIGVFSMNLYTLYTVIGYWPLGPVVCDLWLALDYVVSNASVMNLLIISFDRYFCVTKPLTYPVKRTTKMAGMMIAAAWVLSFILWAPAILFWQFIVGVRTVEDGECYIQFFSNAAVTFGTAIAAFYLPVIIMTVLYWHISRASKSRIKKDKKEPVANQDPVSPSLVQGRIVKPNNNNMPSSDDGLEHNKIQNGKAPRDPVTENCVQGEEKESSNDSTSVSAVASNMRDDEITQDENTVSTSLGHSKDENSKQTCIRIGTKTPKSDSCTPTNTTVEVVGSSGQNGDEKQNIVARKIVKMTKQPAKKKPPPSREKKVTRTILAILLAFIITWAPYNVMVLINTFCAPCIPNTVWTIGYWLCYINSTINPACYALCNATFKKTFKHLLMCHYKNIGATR
# ASSAY_TEXT: Muscarinic M2 binding assay, [3H]-Scopolamine N-Methyl Chloride, human recombinant expressed in CHO cells
READOUT: Ki

# MOLECULE, RESULT
data = [
    ("Cc1ccc(/C(=C\\CN2CCCC2)c2cccc(C(=O)O)n2)cc1 [Compound 16a]", "> 10 µM"),
]

* * *

Each item that follows carries a reported pIC50.
# ASSAY_TARGET: histamine receptor, H1 (Bos taurus)
# Sequence (P30546 whole entry): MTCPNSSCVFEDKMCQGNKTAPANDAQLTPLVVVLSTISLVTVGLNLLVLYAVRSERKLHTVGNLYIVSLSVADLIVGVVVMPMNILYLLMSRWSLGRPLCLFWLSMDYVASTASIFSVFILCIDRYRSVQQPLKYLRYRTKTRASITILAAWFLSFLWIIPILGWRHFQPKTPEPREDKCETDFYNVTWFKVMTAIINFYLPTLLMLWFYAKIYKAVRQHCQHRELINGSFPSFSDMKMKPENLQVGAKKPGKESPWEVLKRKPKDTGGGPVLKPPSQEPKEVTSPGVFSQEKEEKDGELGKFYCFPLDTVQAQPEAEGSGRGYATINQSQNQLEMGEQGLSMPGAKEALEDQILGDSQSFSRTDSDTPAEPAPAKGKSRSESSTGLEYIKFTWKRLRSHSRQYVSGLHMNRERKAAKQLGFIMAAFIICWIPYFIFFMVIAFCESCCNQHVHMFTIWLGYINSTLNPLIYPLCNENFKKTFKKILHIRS
pIC50: −log10 of the molar value.

# COMPOUND, pIC50
measured = [
    ("O=C(CCN1CCC(=C(c2ccccc2)c2ccccc2)CC1)O[C@H]1CCOC1 [Compound 11g]", 6.71),
    ("O=C(CCN1CCC(=C(c2ccccc2)c2ccccc2)CC1)OC1CCOC1 (stereo not drawn) [Compound 11h]", 6.70),
    ("O=C(CCN1CCC(=C(c2ccccc2)c2ccccc2)CC1)OC1CCOCC1 [Compound 11i]", 6.70),
]
